Listed below: Mean percent fungal growth inhibition of Botrytis cinerea values for each entry.
System: Botrytis cinerea
Test: 96-well microtiter fungal growth assay;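 further: percent relative to untreated positive growth controls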
Format: cell-based
Conditions: 30 μm, 72 hrs
Protocol: Pathogen collection. […] Inoculum preparation. […] Conidia concentrations were determined photometrically, from a standard curve based on the absorbance at 625 nm and suspensions were then adjusted with sterile distilled water to a concentration of 1.0×10^6 conidia/mL. Microtiter assay. […] Growth was then evaluated by measuring absorbance of each well at 620 nm using a microplate photometer (Packard Spectra Count, Packard Instrument Co., Downers Grove, Ill.). […]
Expressed in %, but write only the number.

Use these answered entries as a reference point.
[
  {
    "compound": "COC(/C=C/c1ccccc1)=C1\\C(=O)C=C(C)C1=O [Compound 1, coruscanone A]",
    "number": "−88.4"
  },
  {
    "compound": "O=C1C2CC=CCC2C(=O)N1SC(Cl)(Cl)Cl (stereo not shown) [Captan]",
    "number": "−98.7"
  }
]

q: Supply measured Mean percent fungal growth inhibition of Botrytis cinerea of CO/C=C(/C(=O)OC)c1ccccc1Oc1cc(Oc2ccccc2C#N)ncn1 [Azoxystrobin] in your reply.
a: −89.1

q: Supply measured Mean percent fungal growth inhibition of Botrytis cinerea of Cc1cc(C2CC2)nc(Nc2ccccc2)n1 [Cyprodinil] in your reply.
a: −96.2
